All figures here come from patent US9624228B2.

I'd appreciate it if you could supply pIC50 values for the items below.
# target.of.assay: ERK2 enzyme (Homo sapiens (Human))
# method.description: Inhibition assay of ERK (Z'-LYTE kinase assay, Ser/Thr 3 peptide substrate)
# Assay type: biochemical
# details: In vitro, ERK2 enzyme 0.47 ng/μL, 100 μM ATP
pIC50: −log10 of the molar value.

Exercise: Quick one: pIC50 of Cc1cc(-c2n[nH]c3cc4c(cc23)CN(CC2CCOCC2)C(=O)N4)ccn1 [Compound 211] ?
Key: > 7.30

Exercise: Quick one: pIC50 of Cc1cc(-c2n[nH]c3cc4c(cc23)CN([C@@H]2CCCN(Cc3ccc(C)s3)C2)C(=O)N4)ccn1 [Compound 245] ?
Key: > 7.30

Exercise: Quick one: pIC50 of CC(c1ccccc1)c1cc2cc3c(-c4ccnc(N)c4)n[nH]c3cc2[nH]c1=O (stereo not shown) [Compound 344] ?
Key: > 7.30

Exercise: Quick one: pIC50 of Cc1cc(-c2n[nH]c3cc4c(cc23)CN([C@@H]2CN(CCO)C[C@H]2c2ccccc2)C(=O)N4)ccn1 (mixture of isomers) [Compound 376] ?
Key: > 7.30

Exercise: Quick one: pIC50 of Cc1cc(-c2n[nH]c3cc4c(cc23)CN([C@H]2CN(C(C)C)C[C@@H]2c2ccccc2)C(=O)N4)ccn1 [Compound 296] ?
Key: 6.60 to 7.30

Exercise: Quick one: pIC50 of Cc1ccc(-c2n[nH]c3cc4c(cc23)CN([C@@H]2CCN(CC(F)(F)F)C2)C(=O)N4)cn1 [Compound 274] ?
Key: > 7.30

Exercise: Quick one: pIC50 of COc1ncc(-c2n[nH]c3cc4c(cc23)CN([C@H]2CCCN(Cc3ccccc3)C2)C(=O)N4)cn1 [Compound 365] ?
Key: 6.60 to 7.30

* * *

# target.of.assay: ERK2 enzyme (Homo sapiens (Human), UniProt P28482)
# Sequence (P28482 whole entry): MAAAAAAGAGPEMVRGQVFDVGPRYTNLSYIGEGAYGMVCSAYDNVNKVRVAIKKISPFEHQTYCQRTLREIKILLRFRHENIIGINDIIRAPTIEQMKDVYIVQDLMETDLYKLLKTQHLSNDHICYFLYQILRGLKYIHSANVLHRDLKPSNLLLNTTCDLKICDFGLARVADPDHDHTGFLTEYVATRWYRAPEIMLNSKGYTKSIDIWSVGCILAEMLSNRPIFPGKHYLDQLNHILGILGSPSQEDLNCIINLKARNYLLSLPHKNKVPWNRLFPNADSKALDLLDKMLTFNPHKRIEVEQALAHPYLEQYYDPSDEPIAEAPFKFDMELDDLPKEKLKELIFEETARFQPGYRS
# method.description: Inhibition assay of ERK (Z'-LYTE kinase assay, Ser/Thr 3 peptide substrate)
# Format: biochemical
# details: In vitro, ERK2 enzyme 0.47 ng/μL, 100 μM ATP
measured.property: IC50

Exercise: Request body: readout IC50, system ERK2 enzyme (Homo sapiens (Human), UniProt P28482), query Cc1cnccc1-c1n[nH]c2cc3[nH]c(=O)c(C(C)c4ccccc4)cc3cc12 (stereo not drawn) [Compound 343] . Return the value.
Key: 50 to 250 nM

Exercise: Request body: readout IC50, system ERK2 enzyme (Homo sapiens (Human), UniProt P28482), query Cc1cc(-c2n[nH]c3cc4c(cc23)CN([C@@H]2CN(CC(F)(F)F)C[C@H]2C(C)(C)C)C(=O)N4)ccn1 [Compound 329] . Return the value.
Key: 250 to 1000 nM

Exercise: Request body: readout IC50, system ERK2 enzyme (Homo sapiens (Human), UniProt P28482), query Cc1cc(-c2n[nH]c3cc4c(cc23)CN(Cc2cccs2)C(=O)N4)cc(C)n1 [Compound 227] . Return the value.
Key: < 50 nM

Exercise: Request body: readout IC50, system ERK2 enzyme (Homo sapiens (Human), UniProt P28482), query Cc1cc(-c2n[nH]c3cc4c(cc23)CN([C@@H]2CCCN(C3CCCC3)C2)C(=O)N4)ccn1 [Compound 215] . Return the value.
Key: 50 to 250 nM

Exercise: Request body: readout IC50, system ERK2 enzyme (Homo sapiens (Human), UniProt P28482), query COc1ccc(-c2n[nH]c3cc4c(cc23)CN([C@H]2CCCN(Cc3ccc(F)cc3F)C2)C(=O)N4)cn1 [Compound 369] . Return the value.
Key: 250 to 1000 nM

Exercise: Request body: readout IC50, system ERK2 enzyme (Homo sapiens (Human), UniProt P28482), query Cc1cc(-c2n[nH]c3cc4c(cc23)CN([C@@H]2CN(CC(F)(F)F)C[C@H]2c2ccccc2F)C(=O)N4)ccn1 (racemic) [Compound 311] . Return the value.
Key: 50 to 250 nM

Exercise: Request body: readout IC50, system ERK2 enzyme (Homo sapiens (Human), UniProt P28482), query Cc1cc(-c2n[nH]c3cc4c(cc23)CN([C@H]2CCN(CC(F)(F)F)C2)C(=O)N4)cc(C)n1 [Compound 310] . Return the value.
Key: < 50 nM

Exercise: Request body: readout IC50, system ERK2 enzyme (Homo sapiens (Human), UniProt P28482), query Cc1cc(-c2n[nH]c3cc4c(cc23)CN([C@@H]2CCN(C(C)C(F)(F)F)C2)C(=O)N4)ccn1 (stereo partly drawn) [Compound 267] . Return the value.
Key: < 50 nM

Exercise: Request body: readout IC50, system ERK2 enzyme (Homo sapiens (Human), UniProt P28482), query Cc1cc(-c2n[nH]c3cc4[nH]c(=O)c(C5CCCN(Cc6ccccc6)C5)cc4cc23)cc(C)n1 (stereo not drawn) [Compound 360] . Return the value.
Key: 50 to 250 nM

Exercise: Request body: readout IC50, system ERK2 enzyme (Homo sapiens (Human), UniProt P28482), query Cc1cc(-c2n[nH]c3cc4c(cc23)CN([C@@H]2CCN(CC3CCCC3)C2)C(=O)N4)ccn1 [Compound 206] . Return the value.
Key: 250 to 1000 nM

Exercise: Request body: readout IC50, system ERK2 enzyme (Homo sapiens (Human), UniProt P28482), query COc1ncc(-c2n[nH]c3cc4c(cc23)CN([C@@H]2CCN(CC(F)(F)F)C2)C(=O)N4)cn1 [Compound 276] . Return the value.
Key: < 50 nM

Exercise: Request body: readout IC50, system ERK2 enzyme (Homo sapiens (Human), UniProt P28482), query Cc1cc(-c2n[nH]c3cc4c(cc23)CN(C2CCC(=O)N(Cc3ccccc3)C2)C(=O)N4)ccn1 (stereo not drawn) [Compound 232] . Return the value.
Key: < 50 nM

Exercise: Request body: readout IC50, system ERK2 enzyme (Homo sapiens (Human), UniProt P28482), query Cc1cc(-c2n[nH]c3cc4c(cc23)CN([C@@H]2CCCN(Cc3ccc(F)s3)C2)C(=O)N4)ccn1 [Compound 290] . Return the value.
Key: < 50 nM

Exercise: Request body: readout IC50, system ERK2 enzyme (Homo sapiens (Human), UniProt P28482), query Cc1ccc(-c2n[nH]c3cc4c(cc23)CN([C@@H]2CCCN(Cc3ccc(F)cc3F)C2)C(=O)N4)cn1 [Compound 284] . Return the value.
Key: < 50 nM

Exercise: Request body: readout IC50, system ERK2 enzyme (Homo sapiens (Human), UniProt P28482), query Cc1cc(-c2n[nH]c3cc4c(cc23)CN([C@@H]2CN(CCC#N)C[C@H]2c2ccccc2)C(=O)N4)ccn1 (mixture of isomers) [Compound 356] . Return the value.
Key: < 50 nM
